Measured values drawn from the nanobody polyreactivity screen of Harvey et al. (2022) for this set.

# Method: yeast display, Sf9 membrane polyspecificity reagent, FACS + sequencing; frameworks hold sequencing errors
Measured Property: polyreactivity (PSR sort gate)

Guide cases for polyreactivity (PSR sort gate), answers given:
Biosequence	polyreactivity (PSR sort gate)
QFQLVESGGGLVQAGGSLRLSCAASGRIFVYNAMGLYRQAPGKEREFVATITSSGGRTYYADSVKGRFTISRDNAKNTVYLQLNSLKPEDTAVYYWAARPQNNGRNPLYRYNYWGQGTQVTVSS	high polyreactivity
QVQLVESGGGLVQAGGSLRLSCAASGIIFKYNAMGWSRQAPGKERELVAAITSGGSTYYADSVKGRFTISRDNAKNTVYLQRNSLKPEDTAVYYCAARYTYVKNFFRRLTAYYYWGQGTQVTVSS	high polyreactivity
QVQLVESGGGLVQAGGSLRLSCAASGSTFRKYAMGWYRQAPGKEREFVAAITWSTGTTYYADSVKGRFTISRDNAKNTVYLQMNSLKPEDTAVYYCAADSQPPHELYESIEHESWGQGTQVTVSS	low polyreactivity
QVQLVESGGGLVQAGGSLRLSCAASGSTLYYNAMGWYRQAPGKERELVAAITSGGSTSYADSVKGRFTISRDNAKNTVYLQMNSLKPEDTAVYYCAAVFYRRFDYWGQGTQVTVSS	low polyreactivity
QVQLVESGGGLVQAGGSLRLSCAASGSIFIHYAMGWYRQAPGKERELVAAISRTGSTYYADSVKGRFTISRDNAKNTVYLQMNSLKPEDTAVYYCAKRISTRRYDYWGQGTQVTVSS	low polyreactivity
QVQLVESGGGLVQAGGSLRLSCAASGFIFDSNPIGWYRQAPWKEREVVAAISSSGGSTYYADSVKGRFTISRDNAKNTVYLQMKSLKPEDTAVYYCGAESQRFISSSEVYWGQGTQVTVSS	low polyreactivity

*Q* Would you kindly share the measured polyreactivity (PSR sort gate) for `QVQLVESAGGLVQAGGSLRLSCAASGRTFCGNAMGWYRQAPGKERELVAAITSGGSTYYADSVKGRFTISRDNAKNTVYLQMNSLKPEDTAVYYCATRRIYKWYRYYYWGQGTQVTVSS` ?
*A* high polyreactivity

*Q* Would you kindly share the measured polyreactivity (PSR sort gate) for `QVQLVESGGGLVQAGGSLRLSCAASGRTFIIYAMGWYRQAPGKERELVATISIGGSTYADSVKGRFTISRDNAKNTVYLQMNSLKPEDTAVYYCAARGRKYPPRDYWGQGPQVTVSS` ?
*A* high polyreactivity

###

# Method: yeast display, Sf9 membrane polyspecificity reagent, FACS + sequencing; frameworks hold sequencing errors

Biosequence	polyreactivity (PSR sort gate)
QVQLVESGGGLVQAGGSLRLSCAASGYTFSAYAMGWYRQAPGKERELVAVINRSGVRTYYADSVKGRFTISRDNAKNTVYLQMNSLKPEDTAVYYCAADYRNTVLEMDYWGQGTQVTVSS	high polyreactivity
QVQLVESGRGLVQAGGSLRLSCAASGFTFVWYAMGWYIPAPGKERELVAAISRRGTRTYYADSVKGRFTISRDNAKNTVYLQMNSLKPEDTAVYYCASESILGYDYWGQSTQVTVSS	high polyreactivity
QVQLVESGGGLVQAGGSLRLSCAASGFIIVRYAMGWYRQAPGKERELVASITKSGGSTYYADSVKGRFTISRDNAKNTVYLQMNSLKPEDTAVYYCAATVVSRTRYYYRGQRYDYWGQGTQVTVSS	high polyreactivity
QVQLVESGGGLVQAGGSLRLSCAASGRILNVYAMGWYRQAPGKERELHAAINYRGTNTYYADSVKGRFTISRDNAKNTVFLQMNSLKPEDTAVYYCAAERWYYNVYAEYSWGQGTQVTVSS	high polyreactivity
